The values you see were collected from ChEMBL document CHEMBL2380262.

Reported Ki is given for each of the following compounds.
Target: Synaptic vesicular amine transporter (Rattus norvegicus)
Sequence (Q01827 whole entry): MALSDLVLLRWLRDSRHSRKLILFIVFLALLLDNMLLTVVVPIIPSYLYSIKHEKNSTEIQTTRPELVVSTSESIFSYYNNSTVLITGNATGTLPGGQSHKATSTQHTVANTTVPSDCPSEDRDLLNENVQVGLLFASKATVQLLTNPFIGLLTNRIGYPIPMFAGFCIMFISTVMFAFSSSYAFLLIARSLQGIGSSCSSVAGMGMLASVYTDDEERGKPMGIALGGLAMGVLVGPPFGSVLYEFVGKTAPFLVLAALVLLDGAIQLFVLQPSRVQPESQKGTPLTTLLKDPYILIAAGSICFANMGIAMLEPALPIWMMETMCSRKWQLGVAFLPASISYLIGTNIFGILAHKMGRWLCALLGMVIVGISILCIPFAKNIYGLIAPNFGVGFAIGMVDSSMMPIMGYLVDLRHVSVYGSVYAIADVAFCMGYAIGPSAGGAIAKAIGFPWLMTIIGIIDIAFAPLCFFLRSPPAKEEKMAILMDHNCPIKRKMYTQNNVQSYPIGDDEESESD
Assay: Displacement of [3H]DTBZ from VMAT2 in Sprague-Dawley rat synaptic vesicle membranes after 30 mins by scintillation counting analysis
Format: cell membranes, Membrane
Report as a plain number; the unit µM is understood.

// worked examples, Ki included
- chemical-structure: "OC[C@H](O)CN1[C@H](CCc2ccccc2)CC[C@@H]1CCc1ccccc1"
  Ki (µM): 5.91
- chemical-structure: "COc1ccccc1CC[C@@H]1CC[C@H](CCc2ccccc2OC)N1C[C@@H](O)CO"
  Ki (µM): 2.35

Inquiry: Tell me Ki of OC[C@H](O)CN1[C@H](CCc2ccc3c(c2)OCO3)CC[C@@H]1CCc1ccc2c(c1)OCO2 when tested on Synaptic vesicular amine transporter (Rattus norvegicus).
Reply text: 8.47

Inquiry: # return Ki for COc1ccc(CC[C@@H]2CC[C@H](CCc3ccc(OC)cc3)N2C[C@@H](O)CO)cc1 , test system: Synaptic vesicular amine transporter (Rattus norvegicus)
Reply text: 3.94
